# target: MAP3K7 TAB1 (human) (UniProt O43318+Q15750)
# Sequence (O43318 whole entry, looked up): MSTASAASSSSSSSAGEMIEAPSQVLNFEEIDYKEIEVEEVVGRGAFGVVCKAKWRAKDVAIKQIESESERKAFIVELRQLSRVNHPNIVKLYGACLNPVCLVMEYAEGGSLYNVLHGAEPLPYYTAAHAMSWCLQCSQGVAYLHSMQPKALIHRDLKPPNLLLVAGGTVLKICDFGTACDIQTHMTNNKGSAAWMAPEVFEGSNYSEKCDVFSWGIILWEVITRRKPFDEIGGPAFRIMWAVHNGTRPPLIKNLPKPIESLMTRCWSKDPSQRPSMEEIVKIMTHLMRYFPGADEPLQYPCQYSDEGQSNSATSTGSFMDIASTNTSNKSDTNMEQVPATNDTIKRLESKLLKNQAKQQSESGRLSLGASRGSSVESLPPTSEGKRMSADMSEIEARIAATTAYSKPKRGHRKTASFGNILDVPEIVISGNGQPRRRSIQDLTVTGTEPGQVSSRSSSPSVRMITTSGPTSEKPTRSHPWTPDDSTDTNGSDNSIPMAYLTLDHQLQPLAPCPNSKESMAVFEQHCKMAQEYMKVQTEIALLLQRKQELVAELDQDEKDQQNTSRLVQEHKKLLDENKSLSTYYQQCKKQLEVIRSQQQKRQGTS
# Sequence (Q15750 whole entry, looked up): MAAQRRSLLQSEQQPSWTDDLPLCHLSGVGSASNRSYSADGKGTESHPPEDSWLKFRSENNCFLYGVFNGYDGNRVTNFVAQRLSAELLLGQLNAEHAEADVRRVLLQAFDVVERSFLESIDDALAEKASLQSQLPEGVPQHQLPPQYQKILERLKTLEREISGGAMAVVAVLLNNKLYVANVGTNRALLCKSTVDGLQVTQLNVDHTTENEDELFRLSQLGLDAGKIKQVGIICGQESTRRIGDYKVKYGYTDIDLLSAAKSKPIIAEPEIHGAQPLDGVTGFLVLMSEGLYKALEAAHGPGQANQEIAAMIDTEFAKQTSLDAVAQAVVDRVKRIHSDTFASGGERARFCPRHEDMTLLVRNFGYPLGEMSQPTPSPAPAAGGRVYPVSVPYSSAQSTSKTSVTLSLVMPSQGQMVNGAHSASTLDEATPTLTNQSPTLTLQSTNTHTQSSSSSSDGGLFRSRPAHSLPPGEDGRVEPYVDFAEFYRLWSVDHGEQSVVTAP
# assay_notes: radiometric filter-binding kinase assay, Kinase HotSpot
# test_settings: compound 0.5 µM; ATP 10 µM
measured_quantity: residual activity (%)
Give bare numbers, in %.

Recorded residual activity, per entry:
residual activity reading for Cn1sc(=O)n(Cc2ccccc2)c1=O : 105

residual activity reading for O=C1NC(=O)C(c2cn(CCCO)c3ncccc23)=C1c1cnccn1 : 95.5

Each of the following entries comes with a recorded value; kindly state residual activity for each.
1. Nc1nccc(-c2c(-c3ccc(F)cc3)ncn2C2CCNCC2)n1
2. COc1ccc(OC)c2c(=S)c3ccccc3[nH]c12

1: 96.9; 2: 98.8

Each of the following entries comes with a recorded value; kindly state residual activity for each.
1. Cn1nc2c3c(cccc31)C(=O)c1ccccc1-2
2. Cn1cnc2cc3c(Nc4cccc(Br)c4)ncnc3cc21

1: 83.9; 2: 98.6

residual activity reading for CN([C@@H](Cc1ccc(OS(=O)(=O)c2cccc3cnccc23)cc1)C(=O)N1CCN(c2ccccc2)CC1)S(=O)(=O)c1cccc2cnccc12 : 93.4

---

Please provide measured residual activity for the entries that follow.
# target: IKBKB (human)
# assay_notes: radiometric filter-binding kinase assay, Kinase HotSpot
# test_settings: compound 0.5 µM; ATP 10 µM
One number for each entry, in %.

residual activity reading for CN([C@@H](Cc1ccc(OS(=O)(=O)c2cccc3cnccc23)cc1)C(=O)N1CCN(c2ccccc2)CC1)S(=O)(=O)c1cccc2cnccc12 : 96.7

residual activity reading for O=C1Cc2c([nH]c3ccc(Br)cc23)-c2ccccc2N1 : 101

residual activity reading for CC(C)[C@H](CO)Nc1nc(Nc2cc(N)cc(Cl)c2)c2ncn(C(C)C)c2n1 : 104

residual activity reading for Nc1nccc(-c2c(-c3ccc(F)cc3)ncn2C2CCNCC2)n1 : 104

residual activity reading for Cc1nc2cc3nc(-c4cccs4)cnc3cc2n1C : 103

residual activity reading for O=C1NC(=O)C(c2c[nH]c3ccccc23)=C1c1c[nH]c2ccccc12 : 106

residual activity reading for COc1ccc(OC)c2c(=S)c3ccccc3[nH]c12 : 103

residual activity reading for O=C1Nc2ccccc2/C1=C1/Nc2ccccc2/C1=N\OCCC(O)CO (stereo not given) : 90.5

residual activity reading for COc1cc2ncnc(N3CCN(C(=O)Nc4ccc(Oc5ccccc5)cc4)CC3)c2cc1OC : 102

// moving on: another record for residual activity
residual activity reading for CCN(CC)CCCCN1c2ccccc2Oc2ccc(Cl)cc21 : 96.6

---

# target: MAP3K11 (human) (UniProt Q16584)
# Sequence (Q16584 whole entry, looked up): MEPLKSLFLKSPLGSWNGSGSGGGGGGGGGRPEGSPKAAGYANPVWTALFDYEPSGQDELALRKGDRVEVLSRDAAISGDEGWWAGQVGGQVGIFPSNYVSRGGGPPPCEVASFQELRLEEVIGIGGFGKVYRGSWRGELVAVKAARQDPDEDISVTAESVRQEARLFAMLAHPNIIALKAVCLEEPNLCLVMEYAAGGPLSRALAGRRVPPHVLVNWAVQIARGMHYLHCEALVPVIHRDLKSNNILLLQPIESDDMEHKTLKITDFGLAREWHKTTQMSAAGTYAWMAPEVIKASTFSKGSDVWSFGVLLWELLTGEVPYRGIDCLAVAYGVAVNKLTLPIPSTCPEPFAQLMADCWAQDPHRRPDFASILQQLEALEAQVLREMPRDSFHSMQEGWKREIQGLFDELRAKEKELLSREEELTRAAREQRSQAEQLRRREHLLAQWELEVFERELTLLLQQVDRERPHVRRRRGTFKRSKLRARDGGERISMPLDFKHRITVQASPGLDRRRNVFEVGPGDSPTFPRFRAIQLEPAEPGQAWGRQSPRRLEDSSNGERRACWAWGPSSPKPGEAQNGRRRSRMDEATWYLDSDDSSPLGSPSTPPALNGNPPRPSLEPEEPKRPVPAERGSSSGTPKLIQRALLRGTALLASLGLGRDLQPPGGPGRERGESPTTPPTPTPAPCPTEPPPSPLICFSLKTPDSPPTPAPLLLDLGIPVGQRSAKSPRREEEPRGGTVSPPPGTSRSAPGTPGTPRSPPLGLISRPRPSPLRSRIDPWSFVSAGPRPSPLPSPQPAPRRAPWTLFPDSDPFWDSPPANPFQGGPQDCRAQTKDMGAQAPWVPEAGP
# assay_notes: radiometric filter-binding kinase assay, Kinase HotSpot
# test_settings: compound 0.5 µM; ATP 10 µM
Please provide measured residual activity for the entries that follow.
One number for each entry, in %.

Recorded residual activity, per entry:
Here O=C1Nc2ccccc2/C1=C1/Nc2ccccc2/C1=N\OCCC(O)CO (stereo unspecified) was tested on MAP3K11 (human) (UniProt Q16584), and its residual activity came to 10.5

Here COc1cc2ncnc(N3CCN(C(=O)Nc4ccc(Oc5ccccc5)cc4)CC3)c2cc1OC was tested on MAP3K11 (human) (UniProt Q16584), and its residual activity came to 97

Here Cn1nc2c3c(cccc31)C(=O)c1ccccc1-2 was tested on MAP3K11 (human) (UniProt Q16584), and its residual activity came to 97.2

Here Nc1nnc2[nH]c3ccccc3nc1-2 was tested on MAP3K11 (human) (UniProt Q16584), and its residual activity came to 96.3

Here CN([C@@H](Cc1ccc(OS(=O)(=O)c2cccc3cnccc23)cc1)C(=O)N1CCN(c2ccccc2)CC1)S(=O)(=O)c1cccc2cnccc12 was tested on MAP3K11 (human) (UniProt Q16584), and its residual activity came to 105

// moving on: another record for residual activity
Here O=C(Nc1cccc(Nc2cc(Nc3cccc(C(F)(F)F)c3)ncn2)c1)C1CC1 was tested on MAP3K11 (human) (UniProt Q16584), and its residual activity came to 97.7

Data provenance is the kinase profiling compilation of Christmann-Franck et al. (2016).
